target: HRgpA-6H (Porphyromonas gingivalis) (UniProt P28784); test: ELISA, FASEBA Fab on coated HRgpA-6H
property name: Ratio OD(Variant)/OD(WT)
Would you mind answering with just the numeric figure?

Prompt: So what does the record say about Ratio OD(Variant)/OD(WT) for KB001 mouse Fab VL S28N (Fab, V domains shown) VH: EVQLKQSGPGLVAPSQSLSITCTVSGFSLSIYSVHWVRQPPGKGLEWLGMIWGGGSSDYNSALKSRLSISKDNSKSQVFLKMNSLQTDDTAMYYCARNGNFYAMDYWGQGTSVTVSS VL: QIVLTQSPAIMSASLGERVTMTCTASSNVSSSFLHWYQQKPGSSPQLWIYSTSNLASGVPARFSGSGSGTSYSLTISSMEAEDAATYYCHQYHHSPYIYTFGGGTKLEIK ?
Completion: 0.99

Prompt: So what does the record say about Ratio OD(Variant)/OD(WT) for KB001 mouse Fab VL S32Y (Fab, V domains shown) VH: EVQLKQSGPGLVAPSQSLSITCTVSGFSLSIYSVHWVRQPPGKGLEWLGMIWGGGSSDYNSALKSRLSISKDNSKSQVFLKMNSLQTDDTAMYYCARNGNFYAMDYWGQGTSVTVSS VL: QIVLTQSPAIMSASLGERVTMTCTASSSVSSYFLHWYQQKPGSSPQLWIYSTSNLASGVPARFSGSGSGTSYSLTISSMEAEDAATYYCHQYHHSPYIYTFGGGTKLEIK ?
Completion: 0.891

Prompt: So what does the record say about Ratio OD(Variant)/OD(WT) for KB001 mouse Fab VL L55S (Fab, V domains shown) VH: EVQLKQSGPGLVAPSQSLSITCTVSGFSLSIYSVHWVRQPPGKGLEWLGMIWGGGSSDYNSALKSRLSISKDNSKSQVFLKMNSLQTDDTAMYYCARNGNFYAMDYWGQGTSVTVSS VL: QIVLTQSPAIMSASLGERVTMTCTASSSVSSSFLHWYQQKPGSSPQLWIYSTSNSASGVPARFSGSGSGTSYSLTISSMEAEDAATYYCHQYHHSPYIYTFGGGTKLEIK ?
Completion: 0.858
